Read-out: Thyroid Hormone Responsive (THRSP), THRSP (gene 7069)
Assay: LTEA_HepaRG_THRSP: Life Technologies and Expression Analysis (LTEA) Assay for Thyroid Hormone Responsive (THRSP) using HepaRG (AID 2283536)
Conditions: mRNA level, 48 h; actives raise or lower the signal
Method: LTEA_HepaRG is a cell based, multiplexed-readout assay that uses HepaRG, a human liver cell line, with measurements taken at 48 hours after chemical dosing on a 96-well plate.LTEA_HepaRG_THRSP is one of 102 assay component(s) measured in the LTEA HepaRG cell culture assay. It is a marker of NR mediated metabolism.Data from the assay component LTEA_HepaRG_THRSP was analyzed into 1 endpoint. […]
The source made the active and inactive calls. The calls were made as follows: active = hit-call score of the fitted dose curve at least 0.9, where 1 is the maximum; inactive = score below 0.9.
In this exercise, the only acceptable responses are true (1) (active), false (0) (inactive)

Before answering, review these 6 worked examples.
{"Compound": "CCC(C)n1c(=O)[nH]c(C)c(Br)c1=O (configuration not stated)", "Label class": "true (1)"}
{"Compound": "COCC(=O)N(c1c(C)cccc1C)C(C)C(=O)OC (configuration not stated)", "Label class": "false (0)"}
{"Compound": "CN=C=S", "Label class": "false (0)"}
{"Compound": "CCCC(=NOCC)C1=C(O)CC(CC(C)SCC)CC1=O (configuration not stated)", "Label class": "false (0)"}
{"Compound": "Cc1cc(C)nc(Nc2ccccc2)n1", "Label class": "false (0)"}
{"Compound": "CN/C(=N\\[N+](=O)[O-])NCc1cnc(Cl)s1", "Label class": "true (1)"}

Which outcome was entered for the compound O=C(Nc1ccccc1-c1ccc(Cl)cc1)c1cccnc1Cl in this test?
false (0)
